molecular target: human TIMP-1 (human, UniProt P01033 24-207); test: cell-based or functional assay
quantity_measured: IC50 in human protease assay (modified, decreased TIMP-1 and MMP-1) (nM)
# value in nM; strip the unit string

>  <binder>
MS-BW-44-2-15 (Fab, V domains shown, Fab) VH: QVQLVESGGGLVQPGGSLRLSCAASGFTFSSYAMSWVRQAPGKGLEWVSGISGNGVLIFYADSVKGRFTISRDNSKNTLYLQMNSLRAEDTAVYYCARWFDHWGQGTLVTVSS VL: DIALTQPASVSGSPGQSITISCTGTSSDVGGYNYVSWYQQHPGKAPKLMIYDVSNRPSGVSNRFSGSKSGNTASLTISGLQAEDEADYYCQSYDFVRFMVFGGGTKLTVLG

>  <test_result>
0.2

$$$$
>  <binder>
MS-BW-44-6-1 (Fab, V domains shown, Fab from LCDR3 optimization of MS-BW-44-6) VH: QVQLVESGGGLVQPGGSLRLSCAASGFTFNSYAMSWVRQAPGKGLEWVSVISGNGSNTYYADSVKGRFTISRDNSKNTLYLQMNSLRAEDTAVYYCARFLDIWGQGTLVTVSS VL: DIALTQPASVSGSPGQSITISCTGTSSDVGGYNYVSWYQQHPGKAPKLMIYDVSNRPSGVSNRFSGSKSGNTASLTISGLQAEDEADYYCQSYDFIRFMVFGGGTKLTVLG

>  <test_result>
0.2

$$$$

The record that follows has no IC50 in human protease assay (modified, decreased TIMP-1 and MMP-1) shown yet.
*Q* Let me know recorded IC50 in human protease assay (modified, decreased TIMP-1 and MMP-1) for MS-BW-44-6 (Fab, V domains shown, Fab; MS-BW-44 with modified HCDR1 and HCDR2 cassettes) VH: QVQLVESGGGLVQPGGSLRLSCAASGFTFNSYAMSWVRQAPGKGLEWVSVISGNGSNTYYADSVKGRFTISRDNSKNTLYLQMNSLRAEDTAVYYCARFLDIWGQGTLVTVSS VL: DIALTQPASVSGSPGQSITISCTGTSSDVGGYNYVSWYQQHPGKAPKLMIYDVSNRPSGVSNRFSGSKSGNTASLTISGLQAEDEADYYCQSYDFVRFMVFGGGTKLTVLG , thanks.
*A* 0.2

The values you see were collected from patent US20140086935A1.
